Source listed as patent US20060079453A1.

- Target desc: HLA-DR DRB1*0101 (DR1) (Homo sapiens, UniProt P01903+P01911, A100R/D57E/F55L/F60I/F76Y/I96L/L162R/M171V/P40L/Q125E/R42F/V115G/Y59C)
- Experimental details: biochemical
- Type: binding
- Test conditions: DRB1 *0101
No end group written: not given here.
Hi there, I'd appreciate the recorded IC50 for every entry that follows.

Dear colleague, I am looking for the recorded IC50 of the following substance: `FFKNIVTFFKNIVT`
≥ 50 µM

Dear colleague, I am looking for the recorded IC50 of the following substance: `EEYVRFDSDVGE`
≥ 50 µM

Dear colleague, I am looking for the recorded IC50 of the following substance: YSFFPSI [YSFFPSI]
≥ 50 µM

* * *

- Target desc: HLA-DR DRB1*0301 (DR3) (Homo sapiens, UniProt P01903+P01911, A100K/A102G/A103R/A169T/F55Y/I96L/K41T/L162R/M171V/P40S/Q125H/Q178H/Q39Y/R42S/S66N/T106N/T262R/W38E/Y61H)
- Sequence (P01903 26-254 limits assumed, other chains not shown): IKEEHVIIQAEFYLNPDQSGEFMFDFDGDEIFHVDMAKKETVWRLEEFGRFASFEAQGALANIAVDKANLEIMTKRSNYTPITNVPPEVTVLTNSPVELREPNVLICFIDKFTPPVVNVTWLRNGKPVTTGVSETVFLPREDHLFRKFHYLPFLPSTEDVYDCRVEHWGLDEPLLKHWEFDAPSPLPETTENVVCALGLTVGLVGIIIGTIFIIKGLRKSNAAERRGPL
- Experimental details: biochemical
- Type: binding
pIC50: −log10 of the molar value. No end group written: not given here.
Please use 1 whenever pIC50 is not below 4, and 0 whenever it is.

Please tell me: is the sequence `KLSQELHKLQTYPRT` at or over 4 in terms of pIC50?
0

Please tell me: is the sequence `FTRGKRMSSLHLKRY` at or over 4 in terms of pIC50?
1

Please tell me: is the sequence `VEALYLVCGERGFFY` at or over 4 in terms of pIC50?
1

Please tell me: is the sequence `LKLVYRDDFPYAVCR` at or over 4 in terms of pIC50?
1

Please tell me: is the sequence `RIVYRDGNPFAVCKV` at or over 4 in terms of pIC50?
1

Please tell me: is the sequence `QCQKLLWQLNGRLEY` at or over 4 in terms of pIC50?
0

Please tell me: is the sequence `GSHLVEALYLVTGER` at or over 4 in terms of pIC50?
0

Please tell me: is the sequence `NGVLQGITSWGSEPC` at or over 4 in terms of pIC50?
1

Please tell me: is the sequence `SNLELLRICLLLIQS` at or over 4 in terms of pIC50?
1

Please tell me: is the sequence `RSSNTQTQKLLWQLN` at or over 4 in terms of pIC50?
1

Please tell me: is the sequence `GAPLGGALRALAHGV` at or over 4 in terms of pIC50?
0

Please tell me: is the sequence `DLRVVQQLLMGALTV` at or over 4 in terms of pIC50?
1

Please tell me: is the sequence `LLYTFRKDMDKVETF` at or over 4 in terms of pIC50?
1

* * *

- Target desc: HLA-DR DRB1*1302 (DR13) (Homo sapiens, UniProt P01903+P01911, A100E/A169T/K41T/L162R/M171V/P40S/Q125H/Q178H/Q39Y/Q99D/R42S/S66N/T262R/V115G/W38E/Y61H)
- Experimental details: biochemical
- Assay type: binding
- Test conditions: DRBI *1302
No end group written: not given here.
Hi there, I'd appreciate the recorded IC50 for every entry that follows.

Dear colleague, I am looking for the recorded IC50 of the following sequence: CKFVVQLDIQSTKED [CKFVVQLDIQSTKED]
> 11.4 µM

Dear colleague, I am looking for the recorded IC50 of the following sequence: `CYSLYGTTLEQQYNK`
> 13.7 µM

Dear colleague, I am looking for the recorded IC50 of the following sequence: `SEVYDFAFADLTVVY`
> 13.1 µM

* * *

- Target desc: HLA-DR DRB1*0401 (DR4) (Homo sapiens, UniProt P01903+P01911, A100K/A169T/F76Y/I96L/K127E/L162R/M171V/N62H/P40V/Q125Y/R42H/S133A/S149N/S66Y/V115G/V209L/W38E)
- Experimental details: biochemical
- Format: binding
- Test conditions: DRB1 *0401
No end group written: not given here.
Measurement type: pIC50
Value format note: pIC50 is -log10 of concentration (mol/L); just state the number.

Dear colleague, I am looking for the recorded pIC50 of the following sequence: `AAAKAAAAAAFAA`
6.63

Dear colleague, I am looking for the recorded pIC50 of the following sequence: `APPRLITDSRVLERY`
5.18

Dear colleague, I am looking for the recorded pIC50 of the following sequence: `LYFVKVDVTGAYDTI`
8.55

Dear colleague, I am looking for the recorded pIC50 of the following sequence: `QCQKLLWQLNGRLEY`
6.44

Dear colleague, I am looking for the recorded pIC50 of the following sequence: `AFAAAKTAA`
6.24

Dear colleague, I am looking for the recorded pIC50 of the following sequence: `ELVSEFSRMARDPQ`
6.92

Dear colleague, I am looking for the recorded pIC50 of the following sequence: `GAPLGGALRALAHGV`
4.82

Dear colleague, I am looking for the recorded pIC50 of the following sequence: `KSLLSTNLPYGRTNL`
6.16

Dear colleague, I am looking for the recorded pIC50 of the following sequence: `YILLKKILSSRFNQM`
6.74

Dear colleague, I am looking for the recorded pIC50 of the following sequence: `RTAMFQDPQERPRKL`
4.55

Dear colleague, I am looking for the recorded pIC50 of the following sequence: `AAKIFIGFFIDGA`
6.70

Dear colleague, I am looking for the recorded pIC50 of the following sequence: `PAYEKLSAEQSPPPY`
6.32

Dear colleague, I am looking for the recorded pIC50 of the following sequence: `VTGERGFFYTPKTRR`
5.14

Dear colleague, I am looking for the recorded pIC50 of the following sequence: `DFAFTDLTIVYRDDT`
7.10

Dear colleague, I am looking for the recorded pIC50 of the following sequence: `AYVLLSEKKISSIQS`
6.03

Dear colleague, I am looking for the recorded pIC50 of the following sequence: `TTLLRALGAQKEAIS`
6.47

Dear colleague, I am looking for the recorded pIC50 of the following sequence: `LRTIQQLLMGTVNIV`
6.97

Dear colleague, I am looking for the recorded pIC50 of the following sequence: `FPDWQNYTPGPGTRF`
4.63

Dear colleague, I am looking for the recorded pIC50 of the following sequence: `VPTLQDVVLELTPQT`
6.67

Dear colleague, I am looking for the recorded pIC50 of the following sequence: `SEVYDFAFADLTVVY`
6.59

Dear colleague, I am looking for the recorded pIC50 of the following sequence: `FENLVAENVKPPKVD`
5.62

Dear colleague, I am looking for the recorded pIC50 of the following sequence: `PATYGIIVPVLTSLF`
7.82

Dear colleague, I am looking for the recorded pIC50 of the following sequence: `ALSTLVLNRLKVGLQ`
6.29

Dear colleague, I am looking for the recorded pIC50 of the following sequence: `WYRYSVYGTTLEKLT`
6.60

Dear colleague, I am looking for the recorded pIC50 of the following sequence: `GVILYSDPADYFAPG`
5.12

Dear colleague, I am looking for the recorded pIC50 of the following sequence: `PRSLQCVSLHLLSND`
4.80

Dear colleague, I am looking for the recorded pIC50 of the following sequence: `LFFYRKSVWSKLQSI`
6.04

Dear colleague, I am looking for the recorded pIC50 of the following sequence: `RQEILDLWVYHTQGF`
5.23

Dear colleague, I am looking for the recorded pIC50 of the following sequence: `AHAAHAAHAAHAAHAA`
4.10

Dear colleague, I am looking for the recorded pIC50 of the following sequence: `ALLKNYGLLYTFRKD`
6.80

Dear colleague, I am looking for the recorded pIC50 of the following sequence: `RTGQIFKQTYSKFDT`
5.77

Dear colleague, I am looking for the recorded pIC50 of the following sequence: `KDYILDLQPETTDLH`
5.99

Dear colleague, I am looking for the recorded pIC50 of the following sequence: `KLSQELHKLQTYPRT`
4.71

Dear colleague, I am looking for the recorded pIC50 of the following sequence: `IDGVNHQHLPARRAE`
4.47

Dear colleague, I am looking for the recorded pIC50 of the following sequence: `EDFFKLERDMKINCS`
6.65

Dear colleague, I am looking for the recorded pIC50 of the following sequence: `LRMMNDQLMFLERAF`
6.41

Dear colleague, I am looking for the recorded pIC50 of the following sequence: `LMAFTAAVTS`
6.49

Dear colleague, I am looking for the recorded pIC50 of the following sequence: `RVIKNSIRLTL`
5.03

Dear colleague, I am looking for the recorded pIC50 of the following sequence: `AAAKAAAAAAYAA`
6.64

Dear colleague, I am looking for the recorded pIC50 of the following sequence: `QKGRGYRGQHQAHSLERVCH`
7.06

Dear colleague, I am looking for the recorded pIC50 of the following sequence: `FVVYRDSIPHAACHK`
8.00

Dear colleague, I am looking for the recorded pIC50 of the following sequence: `DLFVVYRDSIPHAAC`
7.09

Dear colleague, I am looking for the recorded pIC50 of the following sequence: `NYSVYGNTLEQTVKK`
5.71

Dear colleague, I am looking for the recorded pIC50 of the following sequence: `IGYYDAQKLLEKMGG`
4.90

Dear colleague, I am looking for the recorded pIC50 of the following sequence: `ALWRVSAEEY`
5.18
